- System Name: T1, anti-CD28 Fab (SEQ ID NOs: 202, 203)
- T1 construct: biotinylated and captured on neutravidin coated plates in the phage ELISA
- T1 sequence (VH, as listed by the source, chain 1 of 2): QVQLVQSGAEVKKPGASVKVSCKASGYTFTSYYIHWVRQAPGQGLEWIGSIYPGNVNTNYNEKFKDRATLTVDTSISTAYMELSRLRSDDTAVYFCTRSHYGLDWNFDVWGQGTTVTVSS
- T1 sequence (VL, as listed by the source, chain 2 of 2): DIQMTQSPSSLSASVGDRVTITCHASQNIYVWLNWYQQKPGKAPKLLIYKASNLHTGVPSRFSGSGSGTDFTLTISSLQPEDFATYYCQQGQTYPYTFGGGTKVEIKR
- Procedure Summary: phage ELISA on captured Fab, wells pre-incubated with CD28 antigen (competitor);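 note: clonal phage ELISA with wells pretreated with CD28 plus blocking buffer before phage addition, bound phage detected by HRP-linked anti-M13 antibody, reference wells got blocking buffer only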
Fulfilled means recorded Anti-CD28 Fab signal in the presence of CD28 is 0.07 or above; Not fulfilled means it is below 0.07.

Reference set, count: 3
{"columns": ["Binder", "Qualitative Label"],
 "data": [
  ["YCEGHLAIYQKKCL (on phage, pIII fusion) [Phage-592]", "Not fulfilled"],
  ["YCDGHSPAYIWKCL (on phage, pIII fusion) [Phage-450]", "Fulfilled"],
  ["YCDGHSEQYIAKCL (on phage, pIII fusion) [Phage-572]", "Fulfilled"]
]}

Please indicate if the recorded Anti-CD28 Fab signal in the presence of CD28 for YCEGHMWEYMAKCL (on phage, pIII fusion) [Phage-485] meets or exceeds 0.07. Fulfilled

Try this binder too: YCDGHSREYMSKCL (on phage, pIII fusion) [Phage-458] Fulfilled

Try this binder too: YCDGHSEVYMAKCL (on phage, pIII fusion) [Phage-471] Not fulfilled

Try this binder too: YCDGHAKEYMDKCL (on phage, pIII fusion) [Phage-452] Fulfilled

Try this binder too: YCDGHLAVYMAKCL (on phage, pIII fusion) [Phage-556] Fulfilled

Try this binder too: YCQGHADEYMAKCL (on phage, pIII fusion) [Phage-528] Fulfilled

Try this binder too: YCEGHVTEYMQKCL (on phage, pIII fusion) [Phage-499] Fulfilled

Numbers sourced from patent US20260274955A1.
